system: TNFα; test: cells; assay type: cell-based, human; settings: Homo sapiens, Monocyte, LPS-stimulated human monocytes, TNFα content; read-out: EC50 TNF
Class (by EC50) -- 1: < 30 nM; 2: ≥ 30 nM and < 60 nM; 3: ≥ 60 nM

// below: answered molecules
[in] Quick check: band for CC(C)(O)[C@H](F)CNC(=O)c1cnc(-c2ccc3cc(C#N)cnn23)cc1Nc1cccnc1
[out] 2

[in] Quick check: band for CC(C)(O)[C@H](F)CNC(=O)c1cnc(-c2ccc3cc(C#N)cnn23)cc1Nc1ccc(CN2CCOC2=O)cc1
[out] 1

[in] Quick check: band for CC(C)(O)[C@H](F)CNC(=O)c1cnc(-c2ccc3cc(C#N)cnn23)cc1Nc1nnc(N2CCOCC2)o1
[out] 3

[in] Quick check: band for CC(C)(O)[C@H](F)CNC(=O)c1cnc(-c2ccc3cc(C#N)cnn23)cc1N[C@H]1C[C@@H]2C[C@H]1CN2S(C)(=O)=O
[out] 3

[in] Quick check: band for CC(C)(O)[C@H](F)CNC(=O)c1cnc(-c2ccc3cc(C#N)cnn23)cc1N[C@H]1CC[C@H](O)C1
[out] 1

[in] Quick check: band for N#Cc1cnn2c(-c3cc(Nc4cnn(CC(F)F)c4)c(C(=O)N[C@H]4CC[C@H](NC(=O)C5CC5)CC4)cn3)ccc2c1
[out] 2

[in] Quick check: band for CC(C)(O)[C@H](F)CNC(=O)c1cnc(-c2ccc3cc(C#N)cnn23)cc1N[C@@H]1CCOC[C@H]1F
[out] 2

[in] Quick check: band for CN1CCC(C(=O)NC[C@H]2C[C@H](Nc3cc(-c4ccc5cc(C#N)cnn45)ncc3C(=O)NC[C@@H](F)C(C)(C)O)C2)CC1
[out] 3

[in] Quick check: band for N#Cc1cnn2c(-c3cc(N[C@H]4CCC[C@@H](O)C4)c(C(=O)NC4CCC(F)(F)CC4)cn3)ccc2c1
[out] 3

[in] Quick check: band for CC1(O)CCC(Nc2cc(-c3ccc4cc(C#N)cnn34)ncc2C(=O)NC[C@@H](F)C(C)(C)O)CC1 (some centres unmarked)
[out] 2

Turning to the following molecule.
[in] Quick check: band for N#Cc1cnn2c(-c3cc(N[C@H]4CCC[C@@H](O)C4)c(C(=O)NC4CC4)cn3)ccc2c1
[out] 3
